Assay: PBS Solubility (no DMSO)
Type: physicochemical
Conditions: aqueous buffer, thermodynamic from solid, average
READOUT_NAME: solubility (µM)

Past entries and their recorded results:
> print(dat)
                                   compound  unit.label  obs.value
1  CS(=O)(=O)c1ccc(-c2ccc(F)c(NCc3ccco3)n2)cc1 [Compound 15]          µM        4.5
2  CS(=O)(=O)c1ccc(-c2nc(NCc3cccs3)cc3ccoc23)cc1 [Compound 2]          µM       0.31
3  NS(=O)(=O)c1ccc(-c2cncc(OCc3cccs3)n2)cc1 [Compound 3]          µM        8.5
4  CS(=O)(=O)c1ccc(-c2cc(F)cc(NCc3ccoc3)n2)cc1 [Compound 34]          µM         12
5  CS(=O)(=O)c1ccc(-c2cncc(SCc3ccoc3)n2)cc1 [Compound 12]          µM        7.4
6  CS(=O)(=O)c1ccc(-c2cccc(NCc3ccoc3)n2)cc1 [Compound 47]          µM         88

[1] CS(=O)(=O)c1ccc(-c2nc(NCc3ccoc3)ccc2F)cc1 [Compound 48]
[2] CS(=O)(=O)c1ccc(-c2cccc(NCc3ccc(F)o3)n2)cc1 [Compound 23]
[3] CS(=O)(=O)c1ccc(-c2cccc(OCc3ccsc3)n2)cc1 [Compound 9]
[4] CS(=O)(=O)c1ccc(-c2cccc(OCc3cccs3)n2)cc1 [Compound 1]
Order the items by recorded solubility; the first position goes to the largest value. Rank them, then answer with their labels in that order. 1, 2, 3, 4

----------
Molecular target: ovine COX-1 (oCOX-1) (Ovis aries, UniProt P05979)
Construct: purchased Cayman Chemicals (Ann Arbor, Mich.)
Sequence (P05979 25-600): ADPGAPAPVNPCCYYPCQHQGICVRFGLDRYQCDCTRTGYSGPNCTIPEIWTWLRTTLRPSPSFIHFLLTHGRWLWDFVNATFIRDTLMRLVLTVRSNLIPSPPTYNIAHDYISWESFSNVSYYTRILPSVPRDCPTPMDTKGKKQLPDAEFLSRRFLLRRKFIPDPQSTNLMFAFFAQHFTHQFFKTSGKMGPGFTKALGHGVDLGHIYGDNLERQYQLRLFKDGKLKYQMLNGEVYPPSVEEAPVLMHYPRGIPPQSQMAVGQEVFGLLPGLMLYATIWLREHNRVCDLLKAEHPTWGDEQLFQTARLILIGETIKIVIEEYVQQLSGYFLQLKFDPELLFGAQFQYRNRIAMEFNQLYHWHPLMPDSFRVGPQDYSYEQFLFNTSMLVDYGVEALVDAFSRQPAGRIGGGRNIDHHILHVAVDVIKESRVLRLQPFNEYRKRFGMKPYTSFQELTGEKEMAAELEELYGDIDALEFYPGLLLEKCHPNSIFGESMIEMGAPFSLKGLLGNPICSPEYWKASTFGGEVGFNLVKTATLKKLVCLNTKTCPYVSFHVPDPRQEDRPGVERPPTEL
Assay: LCMS-based COX-1 enzymatic inhibition assay (PGE2 quantification)
Assay type: biochemical
Conditions: 10 minutes; readout pge2/pge2d4 area ratio; average; read-out: COX1 10 minutes pge2/pge2d4 area ratio Avg. IC50
pIC50: −log10 of the molar value.
READOUT_NAME: pIC50

Examples with answers:
> print(dat)
                                   molecule  obs.value
1  CS(=O)(=O)c1ccc(-c2cccc(OCc3ccoc3)n2)cc1       4.40
2  CS(=O)(=O)c1ccc(-c2ccc(F)c(OCc3cccs3)n2)cc1       5.18
3  Cc1occc1CNc1cccc(-c2ccc(S(C)(=O)=O)cc2)n1       4.54
4  Cc1ccoc1CNc1cccc(-c2ccc(S(C)(=O)=O)cc2)n1       4.42
5  CN(Cc1cccs1)c1cncc(-c2ccc(S(C)(=O)=O)cc2)n1       5.53

[P] CS(=O)(=O)c1ccc(-c2cncc(SCc3ccoc3)n2)cc1
[Q] CS(=O)(=O)c1ccc(-n2ccc3ccc(Nc4ccccc4)nc32)cc1
[R] COc1ncc(-c2ccc(S(N)(=O)=O)cc2)nc1NCc1cccs1
Rank by pIC50 (largest to smallest). Lab note: record answer as labels in requested order. R, Q, P

----------
Target: human recombinant COX2 (hCOX2)
Assay: LCMS-based COX2 enzymatic inhibition assay (PGE2 quantification)
Type: biochemical
Set-up: COX2 2 minutes pge2/pge2d4 area ratio Avg; other: 2 minutes; readout pge2/pge2d4 area ratio; average; COX2 2 minutes pge2/pge2d4 area ratio Avg; LLE; average LLE; COX2 2 minutes pge2 area (counts) Avg; readout pge2 area (counts); other: 2 min; "ovine COX2 (oCOX2), human recombinant COX2 (hCOX2)"
Conditions: 2 minutes; readout pge2 area (counts); average; read-out: COX2 2 minutes pge2 area (counts) Avg. IC50
pIC50: −log10 of the molar value.
READOUT_NAME: pIC50

[A] COc1ncc(NCc2ccns2)nc1-c1ccc(S(C)(=O)=O)cc1
[B] CC(C)Oc1ncc(NCc2cccs2)nc1-c1ccc(S(C)(=O)=O)cc1
For this pair, A and B , which shows a numerically higher pIC50? Answer = label. B
(B: 7.21, A: 6.99)
